The reported numbers originate from patent US20240115667A1.

# Test system: SARS-CoV-2
# TEST METHOD NOTES: microbe, parasite or virus in culture
# CONDITION NOTES: Severe acute respiratory syndrome coronavirus 2, Vero C1008, read-out: EC50, inhibition of SARS-CoV-2 induced cytotoxicity, diphenhydramine with 400 μg/ml of lactoferrin; Vero E6, MOI 0.2
pEC50: −log10 of the molar value.

{"MOLECULE": "CN(C)CCOC(c1ccccc1)c1ccccc1 [Diphenhydramine]", "pEC50": 3.73}
